Hey, just so you know, these numbers are from patent US11040987B2.

System: A. baumannii ATCC 19606
assay notes: MIC determination, broth microdilution, ESKAPE panel
Format: cell-based
protocol conditions: Acinetobacter baumannii, ATCC19606; iron-depleted cation-adjusted Mueller-Hinton broth, 2,2-dipyridyl 160 μM; 37° C., 18-20 hours; read-out: MIC A. baumannii ATCC 19606
endpoint name: MIC (µg/mL)

sample_smiles=C[C@]1(CNc2ccc(O)c(O)c2)[C@H](C(=O)O)N2C(=O)C[C@H]2S1(=O)=O endpoint_name=MIC relation== numeric_result=4
sample_smiles=CN(NC(=O)c1ccc(O)c(O)c1)C(=O)OC[C@@]1(C)[C@H](C(=O)O)N2C(=O)C[C@H]2S1(=O)=O endpoint_name=MIC relation== numeric_result=1
sample_smiles=C[C@]1(COC(=O)c2ccc(O)c(O)c2Cl)[C@H](C(=O)O)N2C(=O)C[C@H]2S1(=O)=O endpoint_name=MIC relation=< numeric_result=0.06
sample_smiles=C[C@]1(/C=N/NC(=O)c2cccc(O)c2O)[C@H](C(=O)O)N2C(=O)C[C@H]2S1(=O)=O endpoint_name=MIC relation=> numeric_result=128

* * *

Parameter: IC50. Scope: all listed entries.
assay system: AmpC_AB (Acinetobacter baumannii)
assay notes: β-lactamase inhibition, spectrophotometric assay of nitrocefin hydrolysis
Type: biochemical
protocol conditions: Class C β-lactamase; 200 μM nitrocefin, 25° C., 2 hours; read-out: IC50 AmpC_AB
endpoint name: IC50 (nM)

molecule=C[C@]1(/C=N/NC(=O)c2ccc(O)c(O)c2)[C@H](C(=O)O)N2C(=O)C[C@H]2S1(=O)=O numeric_result=1040
molecule=C[C@]1(/C=N/NC(=O)CNC(=O)c2ccc(O)c(O)c2)[C@H](C(=O)O)N2C(=O)C[C@H]2S1(=O)=O numeric_result=474
molecule="O=C(NC1CCNCC1)[C@@H]1CC[C@@H]2CN1C(=O)N2OS(=O)(=O)O [Relebactam, reference compound]" numeric_result=892
molecule=CN(/N=C/[C@@]1(C)[C@H](C(=O)O)N2C(=O)C[C@H]2S1(=O)=O)C(=O)c1ccc(O)c(O)c1 numeric_result=596
molecule=C[C@]1(COC(=O)NNC(=O)c2ccc(O)c(O)c2Cl)[C@H](C(=O)O)N2C(=O)C[C@H]2S1(=O)=O numeric_result=7180
molecule=C[C@]1(/C=N/NC(=O)c2cnccn2)[C@H](C(=O)O)N2C(=O)C[C@H]2S1(=O)=O numeric_result=5760
molecule="C[C@]1(/C=N/NC(=O)C2CCN(C(=O)c3ccc(O)c(O)c3Cl)C2)[C@H](C(=O)O)N2C(=O)C[C@H]2S1(=O)=O (some centres unmarked)" numeric_result=7620
molecule="O=C(NNC(=O)[C@@H]1CC[C@@H]2CN1C(=O)N2OS(=O)(=O)O)[C@@H]1CCCNC1 [Zidebactam, reference compound]" numeric_result=248

* * *

System: A.b TNP 41704
assay notes: MIC against A. baumannii clinical isolates, alone and in combination with antibiotics
Assay type: cell-based
protocol conditions: Compounds + sulbactam (1:1)
endpoint name: MIC A.b TNP 41704

compound=CN(NC(=O)c1ccc(O)c(O)c1)C(=O)OC[C@@]1(C)[C@H](C(=O)O)N2C(=O)C[C@H]2S1(=O)=O result="8 mg/L"
compound=C[C@]1(CNc2ccc(O)c(O)c2)[C@H](C(=O)O)N2C(=O)C[C@H]2S1(=O)=O result="4 mg/L"
compound=C[C@H](NC(=O)c1ccc(O)c(O)c1Cl)C(=O)N/N=C/[C@@]1(C)[C@H](C(=O)O)N2C(=O)C[C@H]2S1(=O)=O result="8 mg/L"
compound="C[C@]1(/C=N/NC(=O)C2CCN(C(=O)c3ccc(O)c(O)c3Cl)C2)[C@H](C(=O)O)N2C(=O)C[C@H]2S1(=O)=O (stereo partly shown)" result="4 mg/L"
compound=C[C@]1(/C=N/NC(=O)c2ccc(O)c(O)c2)[C@H](C(=O)O)N2C(=O)C[C@H]2S1(=O)=O result="4 mg/L"
compound=C[C@]1(COC(=O)NNC(=O)c2ccc(O)c(O)c2Cl)[C@H](C(=O)O)N2C(=O)C[C@H]2S1(=O)=O result="4 mg/L"
compound=C[C@]1(/C=N/NC(=O)[C@H](CO)NC(=O)c2ccc(O)c(O)c2Cl)[C@H](C(=O)O)N2C(=O)C[C@H]2S1(=O)=O result="4 mg/L"
compound=C[C@]1(COC(=O)c2ccc(O)c(O)c2Cl)[C@H](C(=O)O)N2C(=O)C[C@H]2S1(=O)=O result="8 mg/L"
compound=C[C@]1(/C=N/NC(=O)c2cccc(O)c2O)[C@H](C(=O)O)N2C(=O)C[C@H]2S1(=O)=O result="4 mg/L"
compound=C[C@]1(/C=N/NC(=O)CCNC(=O)c2ccc(O)c(O)c2Cl)[C@H](C(=O)O)N2C(=O)C[C@H]2S1(=O)=O result="1 mg/L"
compound=CN(NC(=O)OC[C@@]1(C)[C@H](C(=O)O)N2C(=O)C[C@H]2S1(=O)=O)C(=O)c1ccc(O)c(O)c1Cl result="8 mg/L"
compound=CN(NC(=O)c1ccc(O)c(O)c1Cl)C(=O)OC[C@@]1(C)[C@H](C(=O)O)N2C(=O)C[C@H]2S1(=O)=O result="4 mg/L"
compound=C[C@]1(/C=N/NC(=O)c2ccc(O)cc2)[C@H](C(=O)O)N2C(=O)C[C@H]2S1(=O)=O result="8 mg/L"
compound=COc1ccc(C(=O)N/N=C/[C@@]2(C)[C@H](C(=O)O)N3C(=O)C[C@H]3S2(=O)=O)cc1 result="4 mg/L"
compound=C[C@]1(/C=N/OCCNC(=O)c2ccc(O)c(O)c2Cl)[C@H](C(=O)O)N2C(=O)C[C@H]2S1(=O)=O result="16 mg/L"
compound=C[C@]1(/C=N/NC(=O)CNC(=O)c2ccc(O)c(O)c2)[C@H](C(=O)O)N2C(=O)C[C@H]2S1(=O)=O result="4 mg/L"

* * *

assay system: KPC-2 (Klebsiella pneumoniae)
Construct: made in house
assay notes: β-lactamase inhibition, spectrophotometric assay of nitrocefin hydrolysis
Type: biochemical
protocol conditions: class A β-lactamase; 200 μM nitrocefin, 25° C., 2 hours; read-out: IC50 KPC-2
endpoint name: IC50

compound=C[C@]1(COC(=O)NNC(=O)c2ccc(O)c(O)c2)[C@H](C(=O)O)N2C(=O)C[C@H]2S1(=O)=O result="> 200 µM"
compound=C[C@]1(/C=N/NC(=O)c2ccc(O)c(O)c2Cl)[C@H](C(=O)O)N2C(=O)C[C@H]2S1(=O)=O result="> 200 µM"
compound="O=C(O)[C@H]1/C(=C/CO)O[C@@H]2CC(=O)N21 [Clavulanate, reference compound]" result="> 200 µM"
compound=CN(/N=C/[C@@]1(C)[C@H](C(=O)O)N2C(=O)C[C@H]2S1(=O)=O)C(=O)c1ccc(O)c(O)c1 result="> 200 µM"
compound=C[C@]1(/C=N/NC(=O)c2cnccn2)[C@H](C(=O)O)N2C(=O)C[C@H]2S1(=O)=O result="> 200 µM"
compound="O=C(NNC(=O)[C@@H]1CC[C@@H]2CN1C(=O)N2OS(=O)(=O)O)[C@@H]1CCCNC1 [Zidebactam, reference compound]" result="2.36 µM"
compound=C[C@]1(/C=N/NC(=O)c2ccc(O)c(O)c2)[C@H](C(=O)O)N2C(=O)C[C@H]2S1(=O)=O result="> 200 µM"
compound="C[C@]1(/C=N/NC(=O)C2CCN(C(=O)c3ccc(O)c(O)c3Cl)C2)[C@H](C(=O)O)N2C(=O)C[C@H]2S1(=O)=O (stereo partly drawn)" result="> 200 µM"
compound=C[C@]1(COC(=O)NNC(=O)c2ccc(O)c(O)c2Cl)[C@H](C(=O)O)N2C(=O)C[C@H]2S1(=O)=O result="140 µM"
compound=C[C@]1(/C=N/NC(=O)CNC(=O)c2ccc(O)c(O)c2)[C@H](C(=O)O)N2C(=O)C[C@H]2S1(=O)=O result="> 200 µM"
compound="C[C@]1(Cn2ccnn2)[C@H](C(=O)O)N2C(=O)C[C@H]2S1(=O)=O [Tazobactam, reference compound]" result="90.2 µM"
compound=CN(/N=C/[C@@]1(C)[C@H](C(=O)O)N2C(=O)C[C@H]2S1(=O)=O)C(=O)c1ccc(O)c(O)c1Cl result="> 200 µM"

* * *

assay system: VIM-1 (Pseudomonas aeruginosa, UniProt A0A0F7KYQ8)
Construct: made in house
assay notes: β-lactamase inhibition, spectrophotometric assay of nitrocefin hydrolysis
Assay type: biochemical
endpoint name: IC50

compound="CC1(C)[C@H](C(=O)O)N2C(=O)C[C@H]2S1(=O)=O [Sulbactam, reference compound]" assay_system="VIM-1 (Pseudomonas aeruginosa, UniProt A0A0F7KYQ8)" endpoint_name=IC50 result="> 200 µM"

* * *

assay system: AmpC_AB (Acinetobacter baumannii)
assay notes: β-lactamase inhibition, spectrophotometric assay of nitrocefin hydrolysis
Type: biochemical
protocol conditions: Class C β-lactamase; 200 μM nitrocefin, 25° C., 2 hours; read-out: IC50 AmpC_AB
pIC50: −log10 of the molar value.
endpoint name: pIC50

compound="NC(=O)[C@@H]1CC[C@@H]2CN1C(=O)N2OS(=O)(=O)O [Avibactam, reference compound]" assay_system="AmpC_AB (Acinetobacter baumannii)" numeric_result=5.58
compound=CN(/N=C/[C@@]1(C)[C@H](C(=O)O)N2C(=O)C[C@H]2S1(=O)=O)C(=O)c1ccc(O)c(O)c1Cl assay_system="AmpC_AB (Acinetobacter baumannii)" numeric_result=6.14
compound=C[C@]1(COC(=O)NNC(=O)c2ccc(O)c(O)c2)[C@H](C(=O)O)N2C(=O)C[C@H]2S1(=O)=O assay_system="AmpC_AB (Acinetobacter baumannii)" numeric_result=5.44
compound=C[C@]1(/C=N/NC(=O)c2ccc(O)c(O)c2Cl)[C@H](C(=O)O)N2C(=O)C[C@H]2S1(=O)=O assay_system="AmpC_AB (Acinetobacter baumannii)" numeric_result=6.14
